As shown below, each of these compounds has a reported pIC50 value.
# SYSTEM_TESTED: CDK6/cyclin D3 (Homo sapiens)
# Sequence (P30281 whole entry, the tested form may be a part): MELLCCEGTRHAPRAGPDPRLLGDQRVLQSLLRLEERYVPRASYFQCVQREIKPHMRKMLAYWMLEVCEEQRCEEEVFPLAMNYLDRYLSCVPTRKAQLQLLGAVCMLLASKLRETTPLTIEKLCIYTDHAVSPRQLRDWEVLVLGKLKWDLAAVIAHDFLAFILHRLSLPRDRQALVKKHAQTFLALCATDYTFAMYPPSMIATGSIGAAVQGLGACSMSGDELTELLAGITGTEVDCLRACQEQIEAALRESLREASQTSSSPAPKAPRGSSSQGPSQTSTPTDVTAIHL
# Sequence (Q00534 whole entry, the tested form may be a part): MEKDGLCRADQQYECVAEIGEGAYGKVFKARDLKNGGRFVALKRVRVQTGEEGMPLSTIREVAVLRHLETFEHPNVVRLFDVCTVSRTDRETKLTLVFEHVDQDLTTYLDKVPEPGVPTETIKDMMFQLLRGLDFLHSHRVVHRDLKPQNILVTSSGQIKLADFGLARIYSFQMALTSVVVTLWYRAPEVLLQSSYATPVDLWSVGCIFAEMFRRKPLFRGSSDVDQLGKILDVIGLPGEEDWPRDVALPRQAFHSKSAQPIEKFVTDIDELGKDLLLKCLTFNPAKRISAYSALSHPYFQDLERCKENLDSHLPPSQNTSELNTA
# EXPERIMENT_SUMMARY: Inhibition of full length human CDK6 (1 to 326 end residues)/N-terminal GST-fusion tagged CyclinD3 (1 to 292 residues) expressed in baculovirus expression system preincubated for 10 mins followed by substrate and ATP addition by mobility shift assay
pIC50: −log10 of the molar value.
READOUT_KIND: pIC50

                                item_smiles  readout_kind  sign_qualifier  recorded_number
0  O=C(CCCO/N=C1/C(=C2/C(=O)Nc3ccccc32)Nc2ccccc21)NO         pIC50               =             7.57
1  O=C(O)CCCO/N=C1/C(=C2/C(=O)Nc3ccccc32)Nc2ccccc21         pIC50               =             7.17
2  C#CCN1C(=O)/C(=C2\Nc3ccccc3\C2=N/OCCCC(=O)NO)c2ccccc21         pIC50               <             6.00

###

# SYSTEM_TESTED: CDK6/cyclin D3 (Homo sapiens) (UniProt P30281+Q00534)
# TEST_CONDITIONS: dose 100.0 nM, time 10.0 min
READOUT_KIND: inhibition (%)

In [3]: df
Out[3]:
                                item_smiles  uom  recorded_number
0  O=C(CCCCCCO/N=C1/C(=C2/C(=O)Nc3ccc(Cl)cc32)Nc2ccccc21)NO    %               63
1      O=C1Nc2ccccc2/C1=C1/Nc2ccccc2/C1=N\O    %             46.6
2  O=C(CCCCCCO/N=C1/C(=C2/C(=O)Nc3ccc(I)cc32)Nc2ccccc21)NO    %              0.8
3  O=C(CCCCCCO/N=C1/C(=C2/C(=O)Nc3ccc(Br)cc32)Nc2ccccc21)NO    %             -2.3
4  O=C(CCCCCCO/N=C1/C(=C2/C(=O)Nc3ccc(F)cc32)Nc2ccccc21)NO    %              4.9
5  COc1ccc2c(c1)NC(=O)/C2=C1\Nc2ccccc2\C1=N/OCCCCCCC(=O)NO    %              8.3

###

# SYSTEM_TESTED: UniProt:Q8WUI4
# Sequence (Q8WUI4 whole entry): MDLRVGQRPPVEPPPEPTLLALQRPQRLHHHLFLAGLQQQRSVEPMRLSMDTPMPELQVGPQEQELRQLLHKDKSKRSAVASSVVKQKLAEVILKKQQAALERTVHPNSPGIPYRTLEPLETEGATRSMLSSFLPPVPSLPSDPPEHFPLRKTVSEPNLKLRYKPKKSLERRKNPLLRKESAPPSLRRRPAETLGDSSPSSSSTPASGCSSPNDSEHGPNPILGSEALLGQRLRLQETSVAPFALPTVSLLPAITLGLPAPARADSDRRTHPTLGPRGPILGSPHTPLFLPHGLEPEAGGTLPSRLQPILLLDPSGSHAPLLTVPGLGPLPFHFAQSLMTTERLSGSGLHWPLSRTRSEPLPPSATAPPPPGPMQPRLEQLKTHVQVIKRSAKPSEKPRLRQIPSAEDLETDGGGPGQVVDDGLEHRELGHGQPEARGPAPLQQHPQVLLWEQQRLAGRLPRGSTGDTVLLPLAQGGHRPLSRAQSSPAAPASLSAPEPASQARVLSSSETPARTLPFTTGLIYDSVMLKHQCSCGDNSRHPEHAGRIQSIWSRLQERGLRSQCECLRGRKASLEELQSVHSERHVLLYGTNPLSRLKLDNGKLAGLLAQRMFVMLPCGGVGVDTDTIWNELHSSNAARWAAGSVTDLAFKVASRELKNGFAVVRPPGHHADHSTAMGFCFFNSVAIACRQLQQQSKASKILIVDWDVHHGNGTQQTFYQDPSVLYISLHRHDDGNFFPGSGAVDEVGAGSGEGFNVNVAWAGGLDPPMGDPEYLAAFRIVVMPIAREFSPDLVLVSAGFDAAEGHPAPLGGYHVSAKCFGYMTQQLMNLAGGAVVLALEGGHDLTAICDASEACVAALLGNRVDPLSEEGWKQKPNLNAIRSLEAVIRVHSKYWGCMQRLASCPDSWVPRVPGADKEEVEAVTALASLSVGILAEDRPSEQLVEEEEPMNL
pIC50: −log10 of the molar value.
READOUT_KIND: pIC50

In [3]: df
Out[3]:
                                item_smiles  result
0  O=C(CCCO/N=C1/C(=C2/C(=O)Nc3ccccc32)Nc2ccccc21)NO  < 5.30

Where do the numbers come from? From ChEMBL document CHEMBL4842385.
